- study.system: LHRH receptors (Rattus norvegicus)
- Construct: Pituitary membranes containing LHRH receptors are prepared in batches from quick-frozen rat pituitaries; tissue Hilltop Labs; host or cells: rat pituitary membranes
- measurement.notes: Receptor Binding (radioligand receptor binding assay)
- experimental.conditions: table 3; rat pituitary membranes, radioiodinated [D-Leu^6 -des Gly^10 ]-LHRH ethyl amide 50 pM, 2 hours at 4° C.; read-out: Receptor Binding pkI (converted)
Square brackets hold non-standard residues; d marks the D form. Peptide text beside a SMILES is read from it. * marks the point of attachment. Acetyl(2-naphthyl) = O=C(Cc1ccc2ccccc2c1)*; Phenylacetyl(4-F) = O=C(Cc1ccc(F)cc1)*; Bn = c1ccc(C*)cc1
Exercise: for every item that follows, state its recorded Ki.
Numbers only, in nM.

• CCNC(=O)[C@@H]1CCCN1C(=O)[C@H](CCCNC(=N)N)NC(=O)[C@H](CC(C)C)NC(=O)[C@@H](Cc1c[nH]c2ccccc12)NC(=O)[C@H](Cc1ccc(O)cc1)NC(=O)[C@H](CO)NC(=O)Cc1ccc(F)cc1 [Compound 74] ({Phenylacetyl(4-F)}-SY[dW]LRP-NHEt) = 26.3

Note: attention shifts to another entry.
Field Ki (entry CCNC(=O)[C@@H]1CCCN1C(=O)[C@H](CCCNC(=N)N)NC(=O)[C@H](CC(C)C)NC(=O)[C@@H](Cc1c[nH]c2ccccc12)NC(=O)[C@H](Cc1ccc(O)cc1)NC(=O)[C@H](COCc1ccccc1)NC(=O)Cc1ccc2ccccc2c1 [Compound 12] ({Acetyl(2-naphthyl)}-S(Bn)Y[dW]LRP-NHEt) ) reads 1.23

====

- study.system: LHRH receptors (Rattus norvegicus, UniProt P30969)
- Construct: Pituitary membranes containing LHRH receptors are prepared in batches from quick-frozen rat pituitaries; tissue Hilltop Labs; host or cells: rat pituitary membranes
- Sequence (P30969 whole entry): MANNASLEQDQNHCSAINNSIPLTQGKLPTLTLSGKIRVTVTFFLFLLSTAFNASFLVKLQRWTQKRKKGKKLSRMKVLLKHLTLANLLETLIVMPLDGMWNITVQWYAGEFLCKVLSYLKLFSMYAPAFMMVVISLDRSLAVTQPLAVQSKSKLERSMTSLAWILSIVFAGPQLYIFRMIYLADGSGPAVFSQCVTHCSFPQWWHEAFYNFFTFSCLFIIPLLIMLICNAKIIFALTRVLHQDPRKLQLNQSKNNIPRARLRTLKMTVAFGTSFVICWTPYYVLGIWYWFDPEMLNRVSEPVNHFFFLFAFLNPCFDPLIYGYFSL
- measurement.notes: Receptor Binding (radioligand receptor binding assay)
- experimental.conditions: table 4; rat pituitary membranes, radioligand 50 pM, 2 hours at 4° C.; read-out: Receptor Binding pkI (converted)
Numbered stars: 1 amine (or outer) side, 2 acyl side, 3 side chain; on linkers, the order of the positions; unused ones are H or OH. Square brackets hold non-standard residues; d marks the D form. Peptide text beside a SMILES is read from it. * marks the point of attachment. Propanoyl(3-(4-F-phenyl)) = O=C(CCc1ccc(F)cc1)*; Propanoyl(3-(4-Cl-Ph)) = O=C(CCc1ccc(Cl)cc1)*; dPhe(4-Cl) = N[C@H](Cc1ccc(Cl)cc1)C(=O)O; 1Nal = N[C@@H](Cc1cccc2ccccc12)C(=O)O; d1Nal = N[C@H](Cc1cccc2ccccc12)C(=O)O; d2Nal = N[C@H](Cc1ccc2ccccc2c1)C(=O)O; d(hCit) = NC(=O)NCCCC[C@@H](N)C(=O)O; NMeY = CN[C@@H](Cc1ccc(O)cc1)C(=O)O; d3Pal = N[C@H](Cc1cccnc1)C(=O)O; d2Thi = N[C@H](Cc1cccs1)C(=O)O; Nicotinoyl = O=C(c1cccnc1)*; X12 = O=C(c1ccc(F)c(Cl)c1)*; Morpholide = C1CN(*)CCO1; CO = O=C([*:1])[*:2]; Bn = c1ccc(C*)cc1; azaGly = NNC(=O)O
endpoint.label: Ki (pM)
One number for each entry, in pM.

Solved entries (count: 6):
- CC(=O)NCCCC[C@H](NC(=O)c1ccc(F)c(Cl)c1)C(=O)N[C@H](Cc1cccc2ccccc12)C(=O)N[C@@H](CO)C(=O)N(C)[C@@H](Cc1ccc(O)cc1)C(=O)N[C@H](CCCCN)C(=O)N[C@@H](CC(C)C)C(=O)N[C@@H](CCCNC(=N)N)C(=O)N1CCC[C@H]1C(=O)N[C@H](C)C(N)=O [Compound 214] (X12-K(Ac)[d1Nal]S[NMeY][dK]LRP[dA]-NH2): 141
- CC(C)C[C@H](NC(=O)[C@@H](CCCCN)NC(=O)[C@H](Cc1ccc(O)cc1)N(C)C(=O)[C@H](COCc1ccccc1)NC(=O)[C@@H](Cc1cccs1)NC(=O)CCc1ccc(Cl)cc1)C(=O)N[C@@H](CCCNC(=N)N)C(=O)N1CCC[C@H]1C(=O)N[C@H](C)C(N)=O [Compound 168] ({Propanoyl(3-(4-Cl-Ph))}-[d2Thi]S(Bn)[NMeY][dK]LRP[dA]-NH2): 129
- CC(C)C[C@H](NC(=O)[C@@H](CCCCNC(=O)c1cccnc1)NC(=O)[C@H](CCCCNC(=O)NN)NC(=O)[C@H](CO)NC(=O)[C@@H](Cc1cccc2ccccc12)NC(=O)CCc1ccc(F)cc1)C(=O)N[C@@H](CCCNC(=N)N)C(=O)N1CCC[C@H]1C(=O)N[C@H](C)C(N)=O [Compound 212] ({Propanoyl(3-(4-F-phenyl))}-[d1Nal]SK(azaGly)[dK](Nicotinoyl)LRP[dA]-NH2): 33.9
- CC(C)C[C@H](NC(=O)[C@@H](CCCCNC(=O)c1cccnc1)NC(=O)[C@H](CCCCNC(=O)c1cccnc1)NC(=O)[C@H](CO)NC(=O)[C@@H](Cc1cccc2ccccc12)NC(=O)CCc1ccc(F)cc1)C(=O)N[C@@H](CCCNC(=N)N)C(=O)N1CCC[C@H]1C(=O)N[C@H](C)C(N)=O [Compound 191] ({Propanoyl(3-(4-F-phenyl))}-[d1Nal]SK(Nicotinoyl)[dK](Nicotinoyl)LRP[dA]-NH2): 9.55
- COc1ccc(C[C@H](NC(=O)[C@H](CO)NC(=O)[C@@H](Cc2cccc3ccccc23)NC(=O)CCc2ccc(F)cc2)C(=O)N[C@H](CCCCN)C(=O)N[C@@H](CC(C)C)C(=O)N[C@@H](CCCNC(=N)N)C(=O)N2CCC[C@H]2C(=O)N[C@H](C)C(N)=O)cc1 [Compound 188] ({Propanoyl(3-(4-F-phenyl))}-[d1Nal]SY(Me)[dK]LRP[dA]-NH2): 3.31
- CCNC(=O)[C@@H]1CCCN1C(=O)[C@H](CCCN=C(N)N)NC(=O)[C@H](CC(C)C)NC(=O)[C@@H](Cc1c[nH]c2ccccc12)NC(=O)[C@H](Cc1ccc(O)cc1)NC(=O)[C@H](CO)NC(=O)[C@H](Cc1cccc2ccccc12)NC(=O)CCc1ccc(F)cc1 [Compound 144] ({Propanoyl(3-(4-F-phenyl))}-[1Nal]SY[dW]LRP-NHEt): 25.7

Please give Ki for each item listed below.
1. CC(C)C[C@H](NC(=O)[C@@H](Cc1c[nH]c2ccccc12)NC(=O)[C@H](Cc1ccc(O)cc1)NC(=O)[C@H](CO)NC(=O)[C@H](Cc1c[nH]c2ccccc12)NC(=O)[C@H](Cc1cccc2ccccc12)NC(=O)N1CCOCC1)C(=O)N[C@@H](CCCNC(=N)N)C(=O)N1CCC[C@H]1C(=O)N[C@H](C)C(N)=O [Compound 223] ({Morpholide-CO}-[1Nal]WSY[dW]LRP[dA]-NH2)
2. CC(C)C[C@H](NC(=O)[C@@H](CCCCN)NC(=O)[C@H](Cc1ccc(O)cc1)N(C)C(=O)[C@H](CO)NC(=O)[C@@H](Cc1ccc2ccccc2c1)NC(=O)CCc1ccc(F)cc1)C(=O)N[C@@H](CCCNC(=N)N)C(=O)N1CCC[C@H]1C(=O)N[C@H](C)C(N)=O [Compound 186] ({Propanoyl(3-(4-F-phenyl))}-[d2Nal]S[NMeY][dK]LRP[dA]-NH2)
3. CC(C)C[C@H](NC(=O)[C@@H](CCCCNC(N)=O)NC(=O)[C@H](Cc1ccc(O)cc1)N(C)C(=O)[C@H](CO)NC(=O)[C@@H](Cc1cccc2ccccc12)NC(=O)CCc1ccc(F)cc1)C(=O)N[C@@H](CCCNC(=N)N)C(=O)N1CCC[C@H]1C(=O)N[C@H](C)C(N)=O [Compound 178] ({Propanoyl(3-(4-F-phenyl))}-[d1Nal]S[NMeY][d(hCit)]LRP[dA]-NH2)
4. CC(C)C[C@H](NC(=O)[C@@H](CCCCN)NC(=O)[C@H](Cc1ccc(O)cc1)N(C)C(=O)[C@H](CO)NC(=O)[C@@H](Cc1ccc(Cl)cc1)NC(=O)CCc1ccc(F)cc1)C(=O)N[C@@H](CCCNC(=N)N)C(=O)N1CCC[C@H]1C(=O)N[C@H](C)C(N)=O [Compound 175] ({Propanoyl(3-(4-F-phenyl))}-[dPhe(4-Cl)]S[NMeY][dK]LRP[dA]-NH2)
5. CC(C)C[C@H](NC(=O)[C@@H](Cc1cccnc1)NC(=O)[C@H](Cc1ccc(O)cc1)N(C)C(=O)[C@H](CO)NC(=O)[C@@H](Cc1cccc2ccccc12)NC(=O)CCc1ccc(F)cc1)C(=O)N[C@@H](CCCNC(=N)N)C(=O)N1CCC[C@H]1C(=O)N[C@H](C)C(N)=O [Compound 184] ({Propanoyl(3-(4-F-phenyl))}-[d1Nal]S[NMeY][d3Pal]LRP[dA]-NH2)

Solution:
26.9
33.9
9.55
6.31
6.31

====

Exercise: for every item that follows, state its recorded Ki.
- study.system: LHRH receptors (Rattus norvegicus)
- Construct: Pituitary membranes containing LHRH receptors are prepared in batches from quick-frozen rat pituitaries; tissue Hilltop Labs; host or cells: rat pituitary membranes
- measurement.notes: Receptor Binding (radioligand receptor binding assay)
- experimental.conditions: table 3; rat pituitary membranes, radioiodinated [D-Leu^6 -des Gly^10 ]-LHRH ethyl amide 50 pM, 2 hours at 4° C.; read-out: Receptor Binding pkI (converted)
Numbered stars: 1 amine (or outer) side, 2 acyl side, 3 side chain; on linkers, the order of the positions; unused ones are H or OH. Square brackets hold non-standard residues; d marks the D form. Peptide text beside a SMILES is read from it. * marks the point of attachment. Propanoyl(3-indol-3-yl) = O=C(CCc1c[nH]c2ccccc12)*; Desaminotyrosyl = O=C(CCc1ccc(O)cc1)*; dLys(iPr) = CC(C)NCCCC[C@@H](N)C(=O)O; Cyclopentanecarbonyl = O=C(C1CCCC1)*; Hydrocinnamoyl = O=C(CCc1ccccc1)*; Piperazinyl(4-Me) = CN1CCN(*)CC1; CO = O=C([*:1])[*:2]
Answers are plain numbers, in nM.

* CCNC(=O)[C@@H]1CCCN1C(=O)[C@H](CCCN=C(N)N)NC(=O)[C@H](CC(C)C)NC(=O)[C@@H](Cc1c[nH]c2ccccc12)NC(=O)[C@H](Cc1ccc(O)cc1)NC(=O)[C@H](CO)NC(=O)[C@H](Cc1c[nH]c2ccccc12)NC(=O)CCc1ccc(O)cc1 [Compound 99] (Desaminotyrosyl-WSY[dW]LRP-NHEt) | 0.0832
* CCNC(=O)[C@@H]1CCCN1C(=O)[C@H](CCCNC(=N)N)NC(=O)[C@H](CC(C)C)NC(=O)[C@@H](CCCCNC(C)C)NC(=O)[C@H](Cc1ccc(O)cc1)NC(=O)[C@H](CO)NC(=O)CCc1c[nH]c2ccccc12 [Compound 54] ({Propanoyl(3-indol-3-yl)}-SY[dLys(iPr)]LRP-NHEt) | 20.4
* CCNC(=O)[C@@H]1CCCN1C(=O)[C@H](CCCNC(=N)N)NC(=O)[C@H](CC(C)C)NC(=O)[C@@H](CCCNC(=N)N)NC(=O)[C@H](Cc1ccc(O)cc1)NC(=O)[C@H](CO)NC(=O)[C@H](Cc1c[nH]c2ccccc12)NC(=O)[C@H](Cc1ccccc1)NC(=O)C1CCCC1 [Compound 70] (Cyclopentanecarbonyl-FWSY[dR]LRP-NHEt) | 0.145
* CCNC(=O)[C@@H]1CCCN1C(=O)[C@H](CCCNC(=N)N)NC(=O)[C@H](CC(C)C)NC(=O)[C@@H](Cc1c[nH]c2ccccc12)NC(=O)[C@H](Cc1ccc(O)cc1)NC(=O)[C@H](CO)NC(=O)[C@H](Cc1c[nH]c2ccccc12)NC(=O)CCc1ccccc1 [Compound 65] (Hydrocinnamoyl-WSY[dW]LRP-NHEt) | 0.269
* CCNC(=O)[C@@H]1CCCN1C(=O)[C@H](CCCNC(=N)N)NC(=O)[C@H](CC(C)C)NC(=O)[C@@H](Cc1c[nH]c2ccccc12)NC(=O)[C@H](Cc1ccc(O)cc1)NC(=O)[C@H](CO)NC(=O)[C@H](Cc1c[nH]c2ccccc12)NC(=O)[C@H](Cc1ccccc1)NC(=O)N1CCN(C)CC1 [Compound 128] ({Piperazinyl(4-Me)-CO}-FWSY[dW]LRP-NHEt) | 0.447

Field Ki (entry CCNC(=O)[C@@H]1CCCN1C(=O)[C@H](CCCNC(=N)N)NC(=O)[C@H](CC(C)C)NC(=O)[C@@H](Cc1c[nH]c2ccccc12)NC(=O)[C@H](Cc1ccc(O)cc1)NC(=O)[C@H](CO)NC(=O)[C@H](Cc1c[nH]c2ccccc12)NC(=O)C(CC(=O)N1CCOCC1)Cc1cccc2ccccc12 (single isomer, unassigned) [Compound 130] ) reads 0.275
